System: 596521-263-R-J1-PDC complex spheroid growth;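 also: spheroids exposed to compounds for 7 days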
assay-explanation: Anticancer human tumor 596521-263-R-J1-PDC patient-derived soft tissue sarcoma cell line growth inhibition [Asc]
condition-description: second compound 0.949 µM; first compound 1 µM; stronger effect = lower value
From the text: Multicellular complex tumor spheroid response to apoptosis pathway targeting inhibitors Alrizomadlin, Pelcitoclax, and Dasminapant in combination with a variety of drugs and investigational agents in selected tumor cell lines […] Compounds. […] If the clinical Cmax for an agent had not been determined, the highest concentration tested was 10 microM. […]

molecule: C=CC(=O)N1CCN(c2nc(=O)n(-c3c(C)ccnc3C(C)C)c3nc(-c4c(O)cccc4F)c(F)cc23)C(C)C1 (stereo not drawn) + CCN1C(C(=O)NC23CCC(C(=O)O)(CC2)CC3)C(c2cccc(Cl)c2F)C2(C(=O)Nc3cc(Cl)ccc32)C12CCCCC2
viability, T/C (%): 113
--
molecule: O=C(c1ccc(F)c(F)c1Nc1ccc(I)cc1F)N1CC(O)([C@@H]2CCCCN2)C1 + CCN1C(C(=O)NC23CCC(C(=O)O)(CC2)CC3)C(c2cccc(Cl)c2F)C2(C(=O)Nc3cc(Cl)ccc32)C12CCCCC2
viability, T/C (%): 39.7
--
molecule: C=C(F)C(=O)N1CCN(c2nc(OCC3CCCN3C)nc3c2CCN(c2cccc4cccc(Cl)c24)C3)CC1CC#N (stereo not drawn) + CCN1C(C(=O)NC23CCC(C(=O)O)(CC2)CC3)C(c2cccc(Cl)c2F)C2(C(=O)Nc3cc(Cl)ccc32)C12CCCCC2
viability, T/C (%): 105
--
molecule: C#Cc1c(F)ccc2cc(O)cc(-c3ncc4c(N5CC6CCC(C5)N6)nc(OCC56CCCN5CC(F)C6)nc4c3F)c12 (stereo not drawn) + CCN1C(C(=O)NC23CCC(C(=O)O)(CC2)CC3)C(c2cccc(Cl)c2F)C2(C(=O)Nc3cc(Cl)ccc32)C12CCCCC2
viability, T/C (%): 98.7
--
molecule: CCN1CCN(Cc2ccc(Nc3ncc(F)c(-c4cc(F)c5nc(C)n(C(C)C)c5c4)n3)nc2)CC1 + CCN1C(C(=O)NC23CCC(C(=O)O)(CC2)CC3)C(c2cccc(Cl)c2F)C2(C(=O)Nc3cc(Cl)ccc32)C12CCCCC2
viability, T/C (%): 83.4
--
molecule: CNC(C)C(=O)NC1CN(S(=O)(=O)c2cccc(S(=O)(=O)N3CCC4CCC(C(=O)NC(c5ccccc5)c5ccccc5)N4C(=O)C(NC(=O)C(C)NC)C3)c2)CCC2CCC(C(=O)NC(c3ccccc3)c3ccccc3)N2C1=O (stereo not drawn) + CCN1C(C(=O)NC23CCC(C(=O)O)(CC2)CC3)C(c2cccc(Cl)c2F)C2(C(=O)Nc3cc(Cl)ccc32)C12CCCCC2
viability, T/C (%): 84.4
--
molecule: O=C(c1cc(Cc2n[nH]c(=O)c3ccccc23)ccc1F)N1CCN(C(=O)C2CC2)CC1 + CCN1C(C(=O)NC23CCC(C(=O)O)(CC2)CC3)C(c2cccc(Cl)c2F)C2(C(=O)Nc3cc(Cl)ccc32)C12CCCCC2
viability, T/C (%): 91.2
--
molecule: COc1c(OCCCN2CCOCC2)ccc2c3n(c(=NC(=O)c4cnc(N)nc4)nc12)CCN3 + CCN1C(C(=O)NC23CCC(C(=O)O)(CC2)CC3)C(c2cccc(Cl)c2F)C2(C(=O)Nc3cc(Cl)ccc32)C12CCCCC2
viability, T/C (%): 30.1

Attribution: PubChem BioAssay AID1963449
